All values here come from the domain aggregation screens of Martell et al. (2025).

- test.protocol: soluble fraction after stress (log2 fold change); higher = more stays soluble; pooled small domains, quantitative proteomics;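 also: 20 min heating vs room temperature control held 20 min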
- assay.setup: stress: 75 degC
Outcome label depends on soluble fraction (log2) relative to -0.9: at/above gives label 1, below gives label 0.

[
  {
    "sequence.data": "HMPELSPEERAIIETLQKNNDLQVNIIAIKTGMDMGSLSAVLFDLEMKGLVKLLAGGMYHLI",
    "label.value": "label 1"
  },
  {
    "sequence.data": "HMTVKRNLVQEILRLKFRHPENFMPNRAFYQEVGINQMRWWDIFYGRKNINQEEYIALSKYF",
    "label.value": "label 1"
  },
  {
    "sequence.data": "HMLGKEVVRAYNISYAIDDKGSLQGDLTAALTGLIPLSKPPVLDQRNRSLYVTATPEQHKDVAALLAKL",
    "label.value": "label 1"
  },
  {
    "sequence.data": "HMSTISPNAFNFLQQNLNKFSDDAEGKMIKDILSKTTYDEYVKNEKSKTDFNSLLRRQTTTGDDNLNRYIN",
    "label.value": "label 1"
  },
  {
    "sequence.data": "HMDSILSIVGGEESYKALLAWAENNISQQELQQLETILKSGNVPAIKRVLVTLMNRFNQAQS",
    "label.value": "label 1"
  },
  {
    "sequence.data": "HMNTAALSLQRRNEIKKWLLEEKTLTVAALSNRFNVTYETIRRDLEILEKEGFLKKVYGGAALNERV",
    "label.value": "label 0"
  },
  {
    "sequence.data": "HMNKKEIISVLEKIIPPSQIKNINIFGSELVIDLNIDNPSLHAKKKLEKSIMSSFDENLKIIVNFSVE",
    "label.value": "label 1"
  },
  {
    "sequence.data": "HMKRLPMRKIRDVLRLSADGLSTRKIGVSLTIGRTTVQAYLDRAAEVDLSWPLPPEMSDTDLERLIYPR",
    "label.value": "label 0"
  },
  {
    "sequence.data": "HMETTVPNVLNHNISTGEILLKENNLNFRIQYIPSNKDEAVGTIINSVPTSGEKVKFGTVVDLKVL",
    "label.value": "label 1"
  },
  {
    "sequence.data": "HMEFQVKVIVSSLNIRSGPGTSYDTLGTVTKGDIFTIVETNSDSTWGKMQSGGWISIKDAYVKK",
    "label.value": "label 0"
  },
  {
    "sequence.data": "HMSDAPLLSIRSLAVAFDGTRVVDGVSFDVARGEVVALVGESGSGKTVTGLSLLDLVPPPGRRVGGEV",
    "label.value": "label 1"
  },
  {
    "sequence.data": "HMQLPDLDEIRQMRKRLDLSQRELAALAGVSQSLIAKIEKGSIDPSYDNVRKIFNAFENILKKRALE",
    "label.value": "label 1"
  },
  {
    "sequence.data": "HMRQKTTFFATESFELPNGEKVEEGQIFRLNDGAFNIAEQQGITRFLTSEANYGRMIAANAEVEKAKLDA",
    "label.value": "label 1"
  },
  {
    "sequence.data": "HMALKQADFDFIRQMIQQRAAIVLDDNKHYFVESRLGPVVEETGSKSLDQLIDQLRSSSNSLLQQKVTEAI",
    "label.value": "label 1"
  },
  {
    "sequence.data": "HMEKIELKTVIPENLKKKRLDFALSELFPEHSRSRIQSWIKEGSVMVNSKNYRQRDLVDAGDVVEINTEQK",
    "label.value": "label 1"
  },
  {
    "sequence.data": "HMPNIHVVFAEEWTDRRLDKVLSEYFDGYSRSFIKKLFDDGLILVNSKAVKPSYKVRAGDMIDISVPDPV",
    "label.value": "label 0"
  },
  {
    "sequence.data": "HMESMIGSLRGRLLELFGDGEVLIEVGGVGYRVIVTPTTTVRLGDVGGDVFVHVHHHIREADQTLYGF",
    "label.value": "label 1"
  },
  {
    "sequence.data": "HMDTPPGLSPEEQAIIDIITTRGDATINELTASIDIPTPRLMGMLVDMEFRSLIAAIPGGRYRI",
    "label.value": "label 0"
  },
  {
    "sequence.data": "HMKTLNKRQQDIINLAREEGFVTVEHLSEYFKVTQQTIRRDLGYLSENLYLARTYGGAFFQS",
    "label.value": "label 1"
  },
  {
    "sequence.data": "HMQADTATITGNGVNMRSGPGTNYQIIDTIPKGTVAEVLSQQDGWVKIYSARISGWVSASYVEIKQT",
    "label.value": "label 0"
  },
  {
    "sequence.data": "HMHSLGDQVFETIKELIVNNTYQPGELLQIDKLAAEFGVSTTPVREALLRLEGLGLVDIERNKAAVVT",
    "label.value": "label 1"
  },
  {
    "sequence.data": "HMTLGQHIQALRKEAGYSQEALGEALGVTRQSISKWESDQAIPEVDKLVTLSRLFQVPVGVLLQVEQP",
    "label.value": "label 1"
  },
  {
    "sequence.data": "HMEFLDQAFLHETMRKVNQDATINLLKKVYEVPQKFIGRKVTVQYDPEDLSRVYVKDLSFPEPVTVYPV",
    "label.value": "label 1"
  },
  {
    "sequence.data": "HMTDFESYTVRVTATNLNIRKGAGTNFHSAGYIKPGVYTIVEEADGKGATRWGKLKSGMGWISLDYAKK",
    "label.value": "label 0"
  },
  {
    "sequence.data": "HMLNDKLQTLFSLFPAVDKDLKKKGVTRQILWEQYKRNHPDGVGRSQFNYYYAQWKDQVNPT",
    "label.value": "label 0"
  },
  {
    "sequence.data": "HMEFYYSDLVGMIVYDTGGNELGKVQAVLNHGAGDLLEIHGVNLKTSILIPFTKEAVPTVDIAARRIVTDP",
    "label.value": "label 1"
  },
  {
    "sequence.data": "HMKHKGILTTWNDDRGFGFITPKEGKEPVFVHISAFARGQGRPVLNASLTYRLVRDDQQRPRAEAVRL",
    "label.value": "label 0"
  },
  {
    "sequence.data": "HMRRKNQVQSSYQKRENGTYTVRFFLSDDMGSIMDLQLMATREDMARALRERFLKDPEKIYGQIMQMLLR",
    "label.value": "label 0"
  },
  {
    "sequence.data": "HMSSSDYDVYNKAINLMLNLLKEPKSIEEVTASLNITKSQAITWINRALNEGKIIKTNRPVRYVVNN",
    "label.value": "label 0"
  },
  {
    "sequence.data": "HMEINEDEIYEKIMIEIEQDNKVKSTWAKALSQSDGNKDKAESLYISMRFEELKYHQSYQKEELNLKDNQQ",
    "label.value": "label 1"
  },
  {
    "sequence.data": "HMSGTFIGGELVKPGEPLTPMQRAAITMGLQMGNTYSPEIMEKYNNAGGSPSKEEFENYQKNKS",
    "label.value": "label 1"
  },
  {
    "sequence.data": "HMVGDLPPQELRVFELIGDGLSNREIADEMILAEKTIKNYVTSLLQKLGMQRRTEAAAFAARLDER",
    "label.value": "label 1"
  },
  {
    "sequence.data": "HMSATPQRMTIIDALDSSGKNLSAYELLDLLNDKGQLFNISTIYRVLDFWIEMGIVHKINSSNTYL",
    "label.value": "label 1"
  }
]
